# assay name: Chemical hydrolysis in PBS, pH 7.3
# Format: physicochemical
# study conditions: second hydrolysis step, half-lives of intermediate 4 to give d4TTP 19; PBS pH 7.3, 37 °C
property: t1/2(2) PBS, pH=7.3 (h)

compound	property	unit text	value reported
CCCCC(=O)Oc1ccc(COP(=O)(OCc2ccc(OC(=O)CCCC)cc2)OP(=O)(O)OP(=O)(O)OC[C@@H]2C=C[C@H](n3cc(C)c(=O)[nH]c3=O)O2)cc1 [3c, γ-Bis-(4-pentanoyloxybenzyl)-d4TTP]	t1/2(2) PBS, pH=7.3	h	270
CCCCCCCCCCCCCC(=O)Oc1ccc(COP(=O)(OCc2ccc(OC(=O)CCCCCCCCCCCCC)cc2)OP(=O)(O)OP(=O)(O)OC[C@@H]2C=C[C@H](n3cc(C)c(=O)[nH]c3=O)O2)cc1 [3h, γ-Bis-(4-tetradecanoyloxybenzyl)-d4TTP]	t1/2(2) PBS, pH=7.3	h	355
COC(=O)Oc1ccc(COP(=O)(OCc2ccc(OC(=O)OC)cc2)OP(=O)(O)OP(=O)(O)OC[C@@H]2C=C[C@H](n3cc(C)c(=O)[nH]c3=O)O2)cc1 [3l]	t1/2(2) PBS, pH=7.3	h	200
CCCCCCCCCCCCCCCCCC(=O)Oc1ccc(COP(=O)(O)OP(=O)(O)OP(=O)(O)OC[C@@H]2C=C[C@H](n3cc(C)c(=O)[nH]c3=O)O2)cc1 [4j, γ-Mono-(4-octadecanoyloxybenzyl)-d4TTP]	t1/2(2) PBS, pH=7.3	h	637
CCC(=O)Oc1ccc(COP(=O)(OCc2ccc(OC(=O)CC)cc2)OP(=O)(O)OP(=O)(O)OC[C@@H]2C=C[C@H](n3cc(C)c(=O)[nH]c3=O)O2)cc1 [3b, γ-Bis-(4-propanoyloxybenzyl)-d4TTP]	t1/2(2) PBS, pH=7.3	h	150
CCCCCCCCCCCCCCCCCC(=O)Oc1ccc(COP(=O)(OCc2ccc(OC(=O)CCCCCCCCCCCCCCCCC)cc2)OP(=O)(O)OP(=O)(O)OC[C@@H]2C=C[C@H](n3cc(C)c(=O)[nH]c3=O)O2)cc1 [3j, γ-Bis-(4-octadecanoyloxybenzyl)-d4TTP]	t1/2(2) PBS, pH=7.3	h	583
CCCCCCCC/C=C\CCCCCCCC(=O)Oc1ccc(COP(=O)(OCc2ccc(OC(=O)CCCCCCC/C=C\CCCCCCCC)cc2)OP(=O)(O)OP(=O)(O)OC[C@@H]2C=C[C@H](n3cc(C)c(=O)[nH]c3=O)O2)cc1 [3k]	t1/2(2) PBS, pH=7.3	h	92
